Field: melting point. Provide a value for each of the compounds that follow.
Counter-ions that a name gives are not always drawn.

Query string: Could you tell me which melting point is on file for CCN(CC)C[C@H]1COc2ccc3[nH]nc(S(=O)(=O)c4cccc5ccccc45)c3c2O1 (as salt: hydrochloride) ?
Result string: 175.6 to 177.2 °C

Query string: // melting point lookup, key: CNC[C@@H]1COc2ccc3[nH]nc(S(=O)(=O)c4cccc5ccccc45)c3c2O1 (as salt: hydrochloride)
Result string: > 200 °C

Query string: Endpoint output: melting point of O=S(=O)(c1cccc2ccccc12)c1n[nH]c2ccc3c(c12)O[C@H](CN1CCCCC1)CO3 (as salt: hydrochloride) . Value?
Result string: 187 to 189 °C

Query string: Endpoint output: melting point of O=S(=O)(c1cccc2ccccc12)c1n[nH]c2ccc3c(c12)O[C@H](CN1CCCC1)CO3 (as salt: hydrochloride) . Value?
Result string: 184 to 186 °C

Query string: Record request: melting point value, item CCNC[C@H]1COc2ccc3[nH]nc(S(=O)(=O)c4cccc5ccccc45)c3c2O1 (as salt: hydrochloride)
Result string: 178.9 to 180.1 °C

Query string: Dear colleague, I am looking for the recorded melting point of the following compound: CCNC[C@@H]1COc2ccc3[nH]nc(S(=O)(=O)c4cccc5ccccc45)c3c2O1 (as salt: hydrochloride)
Result string: 182 to 184 °C
